Target: T1, iASPP CTD (UniProt Q8WUF5 625-828)
T1 construct: iASPP, C-terminal domain (CTD: ankyrin repeats and SH3 domain), amino acids 625-828; In the crystal structure this stretch stood fused behind the p63 peptide; also called iASPP CTD (amino acids 625-828); 15N-labelled iASPP CTD; source: E. coli BL21(DE3) Rosetta, purified (IMAC, TEV cleavage, reverse IMAC, ion exchange, SEC); for NMR grown in M9 minimal medium (15N or 15N,13C labelled); not …
T1 sequence (looked up): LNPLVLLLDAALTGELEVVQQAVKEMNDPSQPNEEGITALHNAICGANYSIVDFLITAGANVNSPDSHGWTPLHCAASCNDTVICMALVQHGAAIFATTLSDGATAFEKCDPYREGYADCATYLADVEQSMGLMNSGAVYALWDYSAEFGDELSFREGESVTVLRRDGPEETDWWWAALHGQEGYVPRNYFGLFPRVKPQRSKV
Assay: not stated; affinities of peptides for iASPP CTD shown in Supplementary Fig. S5B, C, E; the text does not name the method
Conditions: both partners purified
measured-metric: pKd
// field semantics: pKd = negative decimal log of concentration (mol/L)

Q: Quote pKd reported for GDGPKRPFRQN please.
Ans: 5.77
